Values compiled from ChEMBL document CHEMBL1151757.

Tested on: Medulla
Test: Drug uptake in anesthetized cynomolgus monkey brain medulla after 225 mins postinjection
Assay type: ADME, organism-based, Macaca fascicularis
Conditions: in vivo, 3.75 h
Observation type: Drug uptake
Quick one: just the number, no unit, thanks!

Some solved cases for reference:
Compound	Target desc	Meas value
O=C(OCCC[18F])C1C2CCC(CC1c1cccc(/C=C\Br)c1)N2 (stereo not given)	Medulla	3.64
O=C(OCC[18F])C1C2CCC(CC1c1cccc(/C=C\Br)c1)N2 (stereo not given)	Medulla	2.67
O=C(OCC[18F])C1C2CCC(CC1c1ccc(/C=C\I)cc1)N2 (stereo not given)	Medulla	3.24
O=C(OCCC[18F])C1C2CCC(CC1c1cccc(/C=C\I)c1)N2 (stereo not given)	Medulla	3.6

Now take the following compound into account.
Sample O=C(OCC[18F])C1C2CCC(CC1c1cccc(/C=C\I)c1)N2 (stereo not given) — what was its Drug uptake?
2.37
